- Read-out: Vascular cell adhesion molecule 1 (VCAM1), VCAM1 (gene 7412)
- protocol_details: BSK_LPS_VCAM1: BioMAP Diversity Plus: LPS Assay for Vascular cell adhesion molecule 1 (VCAM1) Biomarker Activity (AID 2283086)
- settings: primary human HUVEC with PBMC; actives raise or lower the signal
Calls of active or inactive are those of the source. Rule for the calls: active = hit-call score of the fitted dose curve at least 0.9, where 1 is the maximum; inactive = score below 0.9.
Select the matching outcome among 1 (yes) = active, 0 (no) = inactive

{"query_smiles": "CCCCCCCCCCCCCCCC[N+](C)(C)Cc1ccccc1", "assigned_category": "1 (yes)"}
{"query_smiles": "FC(F)(F)C(F)(F)C(F)(F)C(F)(F)CCI", "assigned_category": "0 (no)"}

Could you please tell me the result logged for `O=P(O)(O)OCCC(F)(F)C(F)(F)C(F)(F)C(F)(F)C(F)(F)C(F)(F)F` in this assay? 0 (no)

Could you please tell me the result logged for `OCC(F)(F)C(F)(F)C(F)(F)F` in this assay? 0 (no)

Could you please tell me the result logged for `O=C(O)C(F)(F)C(F)(F)C(F)(F)C(F)(F)C(F)(F)C(F)(F)C(F)(F)C(F)(F)C(F)(F)C(F)(F)C(F)(F)C(F)(F)C(F)(F)F` in this assay? 0 (no)

Could you please tell me the result logged for `CCCCNc1ccccc1` in this assay? 0 (no)

---

- Read-out: KRT18 (gene 3875)
- protocol_details: BSK_BF4T_Keratin818: BioMAP Diversity Plus: BF4T Assay for Keratin 818 Biomarker Activity (AID 2284266)
- settings: primary human bronchial epithelial cells with fibroblasts
Calls of active or inactive are those of the source. Rule for the calls: active = hit-call score of the fitted dose curve at least 0.9, where 1 is the maximum; inactive = score below 0.9.
quantity_name: outcome

Answered examples (5):
{"molecule": "Cc1ccc(S(=O)(=O)OCC(F)(F)C(F)(F)C(F)(F)C(F)(F)C(F)(F)C(F)F)cc1", "recorded_result": "inactive"}
{"molecule": "FC(F)(Br)C(F)(F)C(F)(F)C(F)(F)C(F)(F)C(F)(F)Br", "recorded_result": "inactive"}
{"molecule": "O=C(O)C(F)(OC(F)(F)C(F)(OC(F)(F)C(F)(F)C(F)(F)F)C(F)(F)F)C(F)(F)F (stereo not given)", "recorded_result": "inactive"}
{"molecule": "FC(F)(F)C(F)(F)CNCC(F)(F)C(F)(F)F", "recorded_result": "inactive"}
{"molecule": "C=CC(F)(F)C(F)(F)C(F)(F)C(F)(F)C(F)(F)C(F)(F)C(F)(F)C(F)(F)F", "recorded_result": "inactive"}

Working through the 5 molecules below one at a time, give outcome for each.
1. C=C(C)C(=O)OCC(F)(F)C(F)(F)C(F)(F)F
2. FC(F)(F)C(F)(F)C(F)(F)C(F)(F)C(F)(F)C(F)(F)C(F)(F)Br
3. FC(F)(F)C(F)(F)C(F)(F)C(F)(F)CCI
4. O=P(O)(O)OCCC(F)(F)C(F)(F)C(F)(F)C(F)(F)C(F)(F)C(F)(F)F
5. FC1CC(F)(F)C(F)(F)C1(F)F (stereo not given)

["inactive", "inactive", "inactive", "inactive", "inactive"]

---

- test_system: human Norepinephrine Transporter (NET), SLC6A2 (gene 6530)
- protocol_details: NVS_TR_hNET: NovaScreen (NVS) Transporter Assay for human Norepinephrine Transporter (NET) (AID 2283377);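 note: cell-free membrane protein extracted from CHO cells expressing human NET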
Results filed as inconclusive are left out. The source made the active and inactive calls. How the source made its calls: active means hit-call score of the fitted dose curve at least 0.9, where 1 is the maximum; inconclusive means response in the unintended direction; inactive means score below 0.9.
Select the matching outcome among active, inactive

Solved entries:
{"query_smiles": "Nc1ccc(Oc2cccc(Oc3ccc(N)cc3)c2)cc1", "assigned_category": "inactive"}
{"query_smiles": "O[Si](c1ccccc1)(c1ccccc1)c1ccccc1", "assigned_category": "active"}
{"query_smiles": "CCN(CC)c1ccc2c(C)cc(=O)oc2c1", "assigned_category": "active"}

Now look at this entry.
Could you please tell me the result logged for `C#C[C@]1(O)CC[C@H]2[C@@H]3CCc4cc(OC)ccc4[C@H]3CC[C@@]21C` in this assay? active

---

- protocol_details: ATG_MRE_CIS: Attagene CIS-FACTORIAL HepG2 Assay for human Metal Responsive Element (MRE) (AID 2282954)
- settings: HepG2 MRE cis-reporter transcription, Attagene multiplex; actives raise or lower the signal
Active and inactive are the calls of the source. The calls were made as follows: active = hit-call score of the fitted dose curve at least 0.9, where 1 is the maximum; inactive = score below 0.9.
Select the matching outcome among 1 for active, 0 for inactive

Solved entries:
{"query_smiles": "Nc1ccc([N+](=O)[O-])cc1O", "assigned_category": 0}
{"query_smiles": "C=CC/C=C/C/C=C/C/C=C/C", "assigned_category": 0}
{"query_smiles": "Oc1ccc(Nc2ccccc2)cc1", "assigned_category": 1}
{"query_smiles": "CC(C)c1ccccc1N", "assigned_category": 0}
{"query_smiles": "CC/C=C\\CCOC(=O)c1ccccc1", "assigned_category": 0}
{"query_smiles": "c1ccc(B(c2ccccc2)c2ccccc2)cc1", "assigned_category": 1}
{"query_smiles": "O=C(O)C(F)(F)C(F)(F)C(F)(F)C(F)(F)F", "assigned_category": 0}
{"query_smiles": "CC(=O)Nc1ccc(N=Nc2cc(C)ccc2O)cc1", "assigned_category": 1}

Could you please tell me the result logged for `FC(F)(Br)C(F)(F)C(F)(F)C(F)(F)C(F)(F)C(F)(F)Br` in this assay? 0

Could you please tell me the result logged for `FC(F)(F)C(F)(F)C(F)(F)C(F)(F)C(F)(F)C(F)(F)CCS` in this assay? 0

Could you please tell me the result logged for `C=C(C)C(=O)OCC(F)(F)C(F)(F)C(F)(F)C(F)(F)C(F)(F)C(F)(F)C(F)(F)F` in this assay? 0

Could you please tell me the result logged for `CN(C)Cc1ccccc1O` in this assay? 0

Could you please tell me the result logged for `Nc1ccc(Oc2cccc(Oc3ccc(N)cc3)c2)cc1` in this assay? 1

Could you please tell me the result logged for `CCCCCCCCCCCCCCCC[N+](C)(C)Cc1ccccc1` in this assay? 0

Could you please tell me the result logged for `NC(=O)C(F)(F)C(F)(F)C(F)(F)C(F)(F)F` in this assay? 0

Could you please tell me the result logged for `O=C(O)C(F)(F)C(F)(F)OC(F)(F)F` in this assay? 0

Could you please tell me the result logged for `OCCCC(F)(F)C(F)(F)C(F)(F)F` in this assay? 0

Could you please tell me the result logged for `CCCCCCOC(=O)c1ccccc1O` in this assay? 0

Could you please tell me the result logged for `O=S(=O)(OCC(F)F)C(F)(F)F` in this assay? 0

Could you please tell me the result logged for `CO[Si](OC)(c1ccccc1)c1ccccc1` in this assay? 0

Could you please tell me the result logged for `FC(F)(F)C(F)(F)C(F)(F)C(F)(F)C(F)(F)C(F)(F)C(F)(F)C(F)(F)CCS` in this assay? 0

Could you please tell me the result logged for `FC(F)(F)C(F)(F)C(F)(F)CI` in this assay? 0

---

- protocol_details: Tanguay_ZF_120hpf_ANY: Oregon State University Tanguay Lab 120 Hour Post-fertilization zebrafish Assay for Any Mortality and Malformation (AID 2284404)
Active and inactive are the calls of the source. Rule for the calls: active = hit-call score of the fitted dose curve at least 0.9, where 1 is the maximum; inactive = score below 0.9.
Select the matching outcome among yes = active, no = inactive

Solved entries:
{"molecule": "FC(F)(F)C(F)(F)C(F)(F)C(F)(F)CCI", "assigned_category": "no"}
{"molecule": "O=C(O)C(F)(F)C(F)(F)C(F)(F)C(F)(F)C(F)(F)C(F)(F)C(F)(F)C(F)(F)C(F)(F)C(F)F", "assigned_category": "yes"}
{"molecule": "OCC(F)(F)C(F)(F)C(F)(F)C(F)(F)C(F)(F)C(F)F", "assigned_category": "no"}

Could you please tell me the result logged for `O=C(O)C(F)(F)C(F)(F)C(F)F` in this assay? no

Could you please tell me the result logged for `OCC(F)(F)C(F)(F)C(F)(F)F` in this assay? no

---

- Read-out: Plasminogen activator inhibitor-1 (PAI1), SERPINE1 (gene 5054)
- protocol_details: BSK_MyoF_PAI1: BioMAP Diversity Plus: MyoF Assay for Plasminogen activator inhibitor-1 (PAI1) Biomarker Activity (AID 2284256);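 for outcome: PAI-1 protein level measured by ELISA in fibroblast cultures; PAI-1 read 24 h after compound addition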
- settings: primary human lung fibroblasts
Active and inactive are the calls of the source. The calls were made as follows: active = hit-call score of the fitted dose curve at least 0.9, where 1 is the maximum; inactive = score below 0.9.
Select the matching outcome among 1 for active, -1 for inactive

Solved entries:
{"compound": "CS(C)(=O)=O", "assigned_category": -1}
{"compound": "FC1CC(F)(F)C(F)(F)C1(F)F (stereo unspecified)", "assigned_category": -1}
{"compound": "CC(C)(C)C(=O)CC(=O)C(F)(F)C(F)(F)C(F)(F)F", "assigned_category": -1}
{"compound": "O=C(O)C(F)(F)C(F)(F)C(F)(F)F", "assigned_category": -1}
{"compound": "FC(F)(F)C(F)(F)C(F)(F)C(F)(F)C(F)(F)CCI", "assigned_category": -1}
{"compound": "O=C(O)C(F)(F)C(F)(F)C(F)(F)C(F)(F)F", "assigned_category": -1}
{"compound": "C=CC/C=C/C/C=C/C/C=C/C", "assigned_category": 1}
{"compound": "CCCCCCCCCCCCCCCC[N+](C)(C)Cc1ccccc1", "assigned_category": 1}
{"compound": "C=C(C)C(=O)OCC(F)(F)C(F)(F)C(F)(F)F", "assigned_category": -1}
{"compound": "FC(F)(F)C(F)(F)CNCC(F)(F)C(F)(F)F", "assigned_category": -1}

Could you please tell me the result logged for `OCC(F)(F)C(F)(F)C(F)(F)C(F)(F)C(F)(F)C(F)(F)F` in this assay? -1

Could you please tell me the result logged for `O=C(O)C(F)(F)C(F)(F)C(F)F` in this assay? -1

Could you please tell me the result logged for `CCc1ccc(C(c2ccc(CC)cc2)C(Cl)Cl)cc1` in this assay? 1

Could you please tell me the result logged for `OCC(F)(F)C(F)(F)C(F)(F)C(F)(F)C(F)(F)C(F)F` in this assay? -1

Could you please tell me the result logged for O=C(O)C(F)(OC(F)(F)C(F)(OC(F)(F)C(F)(OC(F)(F)C(F)(F)C(F)(F)F)C(F)(F)F)C(F)(F)F)C(F)(F)F (stereo unspecified) in this assay? -1

Could you please tell me the result logged for `O=C(O)C(F)(F)C(F)(F)C(F)(F)C(F)(F)C(F)(F)C(F)(F)C(F)(F)C(F)(F)C(F)(F)C(F)(F)C(F)(F)C(F)(F)C(F)(F)F` in this assay? -1
